Reference source for all entries: ChEMBL document CHEMBL5329153

Test system: Plasmodium falciparum
test name: Antimalarial activity against Plasmodium falciparum male gametocytes assessed as parasitic growth inhibition by exflagellation assay
Format: functional, organism-based
quantity name: IC50 (nM)
Numbers only here, please. The scale is nM.

Query string: Fill in the blank: the reported IC50 of C[C@H]1[C@@H](OC(=O)CCC(=O)O)O[C@@H]2C[C@@]3(C)CC[C@H]4[C@H](C)CC[C@@H]1[C@@]24OO3.Cc1cccc2c(C(O)C3CCCCN3)cc(C(F)(F)F)nc12 (racemic) is ____.
Result string: 17

Query string: // IC50 lookup, key: C[C@@H]1CC[C@H]2[C@@H](C)C(=O)O[C@@H]3O[C@@]4(C)CC[C@@H]1[C@]32OO4
Result string: 120
